- Target Under Test: D(1A) dopamine receptor (Homo sapiens) (UniProt P21728)
- Sequence (P21728 whole entry, looked up): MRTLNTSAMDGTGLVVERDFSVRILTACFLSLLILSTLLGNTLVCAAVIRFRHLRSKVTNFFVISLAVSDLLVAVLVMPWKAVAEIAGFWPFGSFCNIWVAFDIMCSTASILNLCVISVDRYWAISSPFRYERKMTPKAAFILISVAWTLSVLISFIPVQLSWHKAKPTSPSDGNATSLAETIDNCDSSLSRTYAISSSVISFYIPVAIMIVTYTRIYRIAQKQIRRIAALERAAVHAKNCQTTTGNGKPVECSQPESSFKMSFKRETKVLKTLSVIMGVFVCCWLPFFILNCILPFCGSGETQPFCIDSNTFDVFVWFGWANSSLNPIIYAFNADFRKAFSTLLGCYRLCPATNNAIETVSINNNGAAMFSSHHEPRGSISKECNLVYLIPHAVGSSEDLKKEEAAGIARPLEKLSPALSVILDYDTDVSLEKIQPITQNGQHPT
- Test Summary: D1 CRE-luciferase signal change, two-sided – cell-based, HEK293 D1, dopamine EC30, D1 allosteric modulator project, primary screen (AID 641)
- Condition Notes: dopamine EC30 potentiation, at 10 µM, actives deviate in either direction
Among all 58,000 compounds or so, about 3,400 (5.9%) were called active. The sample holds actives, similar compounds and a random draw of the others, so the mix is not that of the screen.
Quantity: B-score

                                   compound  reported
0  CCN(CC)C(=O)C1CCC(C)(C(=O)O)C1(C)C (stereo unspecified)     -0.39
1  CC(=O)OC(C)C[N+](C)(C)C (stereo unspecified)      6.75
2  COCCN(CC(=O)Nc1ccccc1C)S(=O)(=O)c1ccc(S(=O)(=O)N2CCCC2)cc1    0.0335
3    O=S(=O)(NCCNS(=O)(=O)c1ccccc1)c1ccccc1     0.231
4  CCOC(=O)C1CCc2nc3ccccc3c(=O)n21 (stereo unspecified)    -0.327
5  O=C(c1ccco1)N1CCN(C(=O)C2CC(c3ccc(F)cc3)=NO2)CC1 (stereo unspecified)    -0.404

* * *

- Target Under Test: D(1A) dopamine receptor (Homo sapiens)
- Test Summary: D1 CRE-luciferase signal change, two-sided – cell-based, HEK293 D1, dopamine EC30, D1 allosteric modulator project, primary screen (AID 641)
- Condition Notes: dopamine EC30 potentiation, at 10 µM, actives deviate in either direction
Among all 58,000 compounds or so, about 3,400 (5.9%) were called active.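 The calls were made as follows: active = luminescence count or its row- and column-corrected plate score outside the 99.7% band of the plate's sample wells, on either side; inactive = the rest.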 This is one part of a sample in which actives are shown more often than they occur.
Outcomes: t for active, f for inactive

In [3]: df
Out[3]:
                                    molecule  category_label
 0      CC1(C)CC(=O)C(C=NCCC2=CCCCC2)=C(O)C1               f
 1        O=C(c1ccco1)N1CCN=C1SCc1cccc(Cl)c1               t
 2                   CCOC(=O)c1cnc2sccn2c1=O               f
 3  COc1ccc(NC(=O)c2cccc(NC(=O)c3ccco3)c2)c(OC)c1               f
 4  CCOc1ccc(-c2nnn(CC(=O)N3CCN(c4ccc(F)cc4)CC3)n2)cc1OCC               f
 5           Cc1ccc(OCCCC(=O)N2CCOCC2)c(C)c1               f
 6  Cn1c(=O)[nH]c(=O)c2c1nc(N1CCCCCC1)n2CC(=O)c1ccccc1               f
 7  COc1ccc(C2N=C(N)N=C(N)N2c2ccccc2)cc1OC (stereo not drawn)               t
 8  COc1ccc(C2/C(=C(/O)c3ccccc3)C(=O)C(=O)N2c2ncccn2)cc1OC (stereo not drawn)               f
 9  CN1CCN(c2nc3c(c(=O)[nH]c(=O)n3C)n2Cc2cccc3ccccc23)CC1               f
10  COC(=O)C(C)Sc1ccc2nnc(-c3cccc(F)c3)n2n1 (stereo not drawn)               f
11          O=C(C1CC1)N1CCN=C1SCc1ccc(Cl)cc1               f
12  CCOc1cccc(-c2nnc3sc(COc4ccc(OC)cc4)nn23)c1               f
13  Cn1cc(S(=O)(=O)N2CCC(Cc3ccccc3)CC2)c(=O)n(C)c1=O               f
14  COc1ccc(CNC(=O)c2cc3c(=O)n4ccccc4nc3n(CC3CCCO3)c2=N)cc1 (stereo not drawn)               f
15                 C=CCNC(=O)CCCOc1cccc(C)c1               f
16  CCCSc1nc2c(c(=O)[nH]c(=O)n2C)n1CCc1ccccc1               t
17             Cc1ccc(-c2noc(CCC(N)=O)n2)cc1               f
18  CCOc1cc(-c2nc3cc(C)ccn3c2NCC2CCCO2)ccc1O (stereo not drawn)               f
19        O=C(c1ccco1)N1CCN(c2cccc(Cl)c2)CC1               f
20  CCCn1c(=NC(C)=O)c(C(=O)OCC)cc2c(=O)n3ccccc3nc21               t
21        CCOc1cccc(-n2nnnc2-c2ccc(OC)cc2)c1               t
22  COc1ccc(N2C(=O)C3CCCN3C2c2cc(OC)c(OC)cc2OC)cc1 (stereo not drawn)               f
